Experiment: Permeability from apical to basolateral side of the human Caco-2 membrane
Type: ADME, cell-based
Conditions: read-out: permeability

smiles.text: COc1ccc(S(=O)(=O)N2C[C@H](C(=O)N3CCCNCC3)c3ccccc32)c2ccccc12
Papp A→B: < 2.2 ×10⁻⁶ cm/s

====

Target: 5-hydroxytryptamine receptor 6 (Homo sapiens, UniProt P50406)
Sequence (P50406 whole entry): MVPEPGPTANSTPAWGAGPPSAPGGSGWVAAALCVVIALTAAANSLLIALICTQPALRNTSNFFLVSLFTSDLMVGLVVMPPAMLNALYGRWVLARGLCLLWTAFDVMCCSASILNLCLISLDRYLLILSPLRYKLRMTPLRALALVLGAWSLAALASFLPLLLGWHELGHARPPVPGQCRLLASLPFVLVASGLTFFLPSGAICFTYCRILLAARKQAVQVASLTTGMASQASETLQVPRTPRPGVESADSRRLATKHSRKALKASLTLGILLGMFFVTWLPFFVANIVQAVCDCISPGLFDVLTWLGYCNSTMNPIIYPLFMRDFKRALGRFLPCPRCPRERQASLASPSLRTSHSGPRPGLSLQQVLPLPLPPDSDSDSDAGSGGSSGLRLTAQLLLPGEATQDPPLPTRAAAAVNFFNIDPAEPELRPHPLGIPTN
pKi: −log10 of the molar value.
Label Yes when pKi is at or above 7; otherwise label No.

compound: CN1CCC(N(C)C(=O)C2CN(S(=O)(=O)c3ccc(C(F)(F)F)cc3)c3ccccc32)CC1 (racemic)
class.label: Yes
//
compound: Cc1cnc2c(S(=O)(=O)N3CC(C(=O)N(C)C4CCN(C)CC4)c4ccccc43)cccc2c1 (racemic)
class.label: No
//
compound: CN1CCC(N(C)C(=O)C2CN(S(=O)(=O)c3ccc4c(c3)OCCO4)c3ccccc32)CC1 (racemic)
class.label: Yes
//
compound: COc1ccc(S(=O)(=O)N2CC(C(=O)NC3CC4CCC(C3)N4C)c3ccccc32)c2ccccc12 (racemic)
class.label: Yes
//
compound: CN1CCC(N(C)C(=O)C2CN(S(=O)(=O)c3ccc(OC(F)(F)F)cc3)c3ccccc32)CC1 (racemic)
class.label: Yes

====

pKi: −log10 of the molar value.
Assay system 5-hydroxytryptamine receptor 6 (Homo sapiens); read-out recorded as pKi.

molecule: COc1cc(C)c(S(=O)(=O)N2CC(C(=O)N(C)C3CCN(C)CC3)c3ccccc32)c(C)c1C (racemic)
pKi: 7.00
//
molecule: COc1ccc(S(=O)(=O)N2CC(C(=O)N(C)C3CCN(C)CC3)c3ccccc32)c(C)c1C (racemic)
pKi: 7.00
//
molecule: COc1cccc(N2CCN(C(=O)C3CN(S(=O)(=O)c4ccc(OC)c5ccccc45)c4ccccc43)CC2)c1 (racemic)
pKi: 7.20
